These data points were gathered from the RNAGym collection of RNA variant scans (doi:10.1101/gr.219683.116).

B1: mRNA-splicing (parent)
chain: AGUUGCUGCUGGGAGCUCCAGCACAGUGAAAUGGACAGAAGGGCAGAGCAA

- Variants of: B1
- method notes: exon inclusion enrichment index; higher = more inclusion; WT1 exon 5 minigene, HEK293
reported endpoint: exon inclusion enrichment index
Respond using a number only.

AGUUCUUCUCGGGAGCUCCAGCACAGUGAAAUGGACAGAAGGGCCCAGCAA [G5C C6U G8C C9U U10C A45C G46C] | 1.22

Task item: Can you share its exon inclusion enrichment index? I mean this variant: AGUUCGCGCCGGGAGCUCCAGCCAAGUGAAAUGGACAGAAGGGCAGAGCAA [G5C C6G U7C U10C A23C C24A]
Reply: 3.49

Task item: Can you share its exon inclusion enrichment index? I mean this variant: AGUUGUAGACGGGAGCUCCAGCACAGUGAAAUGGACAGAAGGGCAGAGCAA [C6U U7A C9A U10C]
Reply: 0.322

Task item: Can you share its exon inclusion enrichment index? I mean this variant: AGUUGAAGAAGGGAGCUCCAGCACAGAGAAAUGGACAGAAGGGCAGAGCAA [C6A U7A C9A U10A U27A]
Reply: 0.945

Task item: Can you share its exon inclusion enrichment index? I mean this variant: AGUUCGCGCCGGGAGCUCCAAAACAGUGAAAUGGACAGAAGGGCAGAGCAA [G5C C6G U7C U10C G21A C22A]
Reply: 1.7

Task item: Can you share its exon inclusion enrichment index? I mean this variant: AGUUACCACCGGGAGCUCCAGCACAGUGAAAUGGAGUGAAGGGCAGAGCAA [G5A U7C G8A U10C C36G A37U]
Reply: 1.08
